Hey, just so you know, these numbers are from patent US8410309B2.

assay: Salmon calcitonin (sCT) oral delivery, serum sCT by EIA; details: rats, delivery agent compound dose 150 mg/kg, sCT dose 30 μg/kg, dose volume 1 (ml)
Quantity Measured: Mean Peak Serum sCT (pg/ml ± SD) (SE) (pg/mL)

O=C(O)c1ccc(C(O)COc2ccccc2O)cc1 (stereo not drawn) ... 133
CC(=O)c1ccc(OCCCCCCCC(=O)O)cc1 ... 117
CC(O)c1ccccc1OCCCCCCCC(=O)O (stereo not drawn) ... 0

I = CC(=O)c1cccc(OCCCCCCCC(=O)O)c1
II = O=C(O)CCCCCCCOc1cccc(O)c1
For the pair I and II , which entry has the numerically smaller recorded Mean Peak Serum sCT (pg/ml ± SD) (SE)? // return label of chosen record
II
(II: 50 pg/mL, I: 138 pg/mL)
